assay: Cytotoxicity against human HCT116 cells assessed as growth inhibition after 72 hrs by sulforhodamine B assay; type: functional, cell-based, HCT-116; conditions: Homo sapiens, HCT-116, 72 h; read-out: IC50
The following compounds are shown together with reported IC50 values.

CC(c1ccc(-c2ccccc2)c(F)c1)c1nnc2n1N=C(c1ccc(Cl)cc1)CS2 (stereo not drawn); 7.8 µM
CC(C)Cc1ccc(C(C)c2nnc3n2N=C(c2ccc(Br)cc2)CS3)cc1 (stereo not drawn); 7.1 µM

The record that follows has no IC50 shown yet.
Challenge: For the compound COc1ccc2cc(C(C)c3nnc4n3N=C(c3ccc(Cl)cc3)CS4)ccc2c1 (stereo not drawn) , what IC50 is on record?
Response given: 8.8 µM
